Record form. Attribute: AUC. Fill in for each entry.
experiment-summary: Pharmacokinetic test in mice
Type: in vivo
measurement-setup: male, ICR, 25 mg/kg; mouse, po 25 mpk, plasma
Give the value in ng·h/mL but do not write ng·h/mL after it.

Record [2H]C([2H])([2H])NC(=O)c1ccc(NCC#Cc2cc3c(NC4CCC(N5CC6(COC6)C5)CC4F)cccn3c2CC(F)(F)F)c(OC([2H])([2H])[2H])c1 (single isomer, unassigned) [Compound 74d] . Reported AUC: 17400

Record CNC(=O)c1ccc(NCC#Cc2nc3c(N[C@@H]4CCN(C)C[C@@H]4F)cccn3c2CC(F)(F)F)c(OC)c1 . Reported AUC: 4070

Record CNC(=O)c1ccc(NCC#Cc2nc3c(NC4CCC(N5CC6(COC6)C5)CC4F)cccn3c2CC(F)(F)F)c(OC)c1 (single isomer, unassigned) . Reported AUC: 19700

Record [2H]C([2H])([2H])NC(=O)c1ccc(NCC#Cc2nc3c(NC4CCC(N5CCOCC5)CC4F)cccn3c2CC(F)(F)F)c(OC([2H])([2H])[2H])c1 (single isomer, unassigned) [Compound 70d] . Reported AUC: 59700

###

System: NUGC-3 cells
experiment-summary: NUGC-3 cell proliferation assay (CTG)
Type: cell-based, human
measurement-setup: Homo sapiens, NUGC-3, 144 h, 6 days, CTG
readout-kind: GI50

Record CNC(=O)c1ccc(NCC#Cc2nc3c(NC4CCN(C)CC4)nccn3c2CC(F)(F)F)c(OC)c1 . Reported GI50: 1000 to 5000 nM

Record CNC(=O)c1ccc(NCC#Cc2cc3c(NC4CCC(N5CC6(COC6)C5)CC4F)cccn3c2CC(F)(F)F)c(OC)c1 (single isomer, unassigned) [Compound 65d] . Reported GI50: < 1000 nM

Record CNC(=O)c1ccc(NCC#Cc2nc3c(NC4CCN(C)CC4)cccn3c2CC(F)(F)F)c(F)c1 . Reported GI50: 1000 to 5000 nM

Record CNC(=O)c1ccc(NCC#Cc2nc3c(NC4CC[C@@H](N5CC6(COC6)C5)C[C@@H]4F)cccn3c2CC(F)(F)F)c(OCF)c1 (stereo partly drawn) . Reported GI50: < 1000 nM

Record COc1cc(S(C)(=O)=O)ccc1NCC#Cc1nc2c(NC3CCN(C)CC3)cccn2c1CC(F)(F)F . Reported GI50: 1000 to 5000 nM

Record COc1cc(-c2nccs2)ccc1NCC#Cc1nc2c(NC3CCN(C)CC3)cccn2c1CC(F)(F)F . Reported GI50: ≥ 5000 nM

###

target-desc: p53 Y220C (Homo sapiens, UniProt P04637, P309S/R273H/Y220C)
Construct: a truncated mutant containing only amino acids 94-312 of p53
experiment-summary: DNA binding test (HTRF): binding of P53Y220C protein to DNA
measurement-setup: HTRF, activation of p53 Y220C (aa 94-312) binding to biotin DNA
readout-kind: EC50

Record CNC(=O)c1ccc(NCC#Cc2nc3c(N[C@H]4CC[C@H](N5CC6(COC6)C5)CC4)cccn3c2CC(F)(F)F)c(OC)c1 [Compound 9] . Reported EC50: 100 to 500 nM

Record [2H]C([2H])([2H])NC(=O)c1ccc(NCC#Cc2cc3c(NC4CCC(N5CCOCC5)CC4F)cccn3c2CC(F)(F)F)c(OC([2H])([2H])[2H])c1 (single isomer, unassigned) [Compound 73d] . Reported EC50: < 100 nM

Record CNC(=O)c1ccc(NCC#Cc2nc3c(NC4CCN(C)CC4)cncn3c2CC(F)(F)F)c(OC)c1 [Compound 2] . Reported EC50: ≥ 1000 nM

Record COc1cc(C#N)ccc1NCC#Cc1nc2c(NC3CCN(C)CC3)cccn2c1CC(F)(F)F [Compound 11] . Reported EC50: 100 to 500 nM

Record CNC(=O)c1ccc(NCC#Cc2nc3c(NC4CCC(N5CCOCC5)C[C@@H]4F)cccn3c2CC(F)(F)F)c(OC)c1 (stereo partly drawn) [Compound 44] . Reported EC50: < 100 nM

Record CNC(=O)c1ccc(NCC#Cc2nc3c(NC4CCC(F)(F)CC4)cccn3c2CC(F)(F)F)c(OC)c1 [Compound 6] . Reported EC50: 100 to 500 nM

###

Record form. Attribute: Papp B→A at 120 min, 10 μM. Fill in for each entry.
experiment-summary: Caco-2 cell permeability test
Format: in vitro ADME
measurement-setup: human, pH 7.4, Caco-2, 10 μM, B to A
Give the value in ×10⁻⁶ cm/s but do not write ×10⁻⁶ cm/s after it.

Record [2H]C([2H])([2H])NC(=O)c1ccc(NCC#Cc2nc3c(NC4CC[C@@H](N5CC6(COC6)C5)C[C@@H]4F)cccn3c2CC(F)(F)F)c(OC([2H])([2H])[2H])c1 (stereo partly drawn) . Reported Papp B→A at 120 min, 10 μM: 5.99

Record COc1cc(C(=O)NC2CC2)ccc1NCC#Cc1nc2c(NC3CC[C@@H](N4CC5(COC5)C4)C[C@@H]3F)cccn2c1CC(F)(F)F (stereo partly drawn) . Reported Papp B→A at 120 min, 10 μM: 5.16

Record CNC(=O)c1ccc(NCC#Cc2nc3c(N[C@@H]4CCN(C)C[C@@H]4F)cccn3c2CC(F)(F)F)c(OC)c1 . Reported Papp B→A at 120 min, 10 μM: 23.1

Record CNC(=O)c1ccc(NCC#Cc2nc3c(NC4CCC(N5CCOCC5)C[C@@H]4F)cccn3c2CC(F)(F)F)c(OC)c1 (stereo partly drawn) . Reported Papp B→A at 120 min, 10 μM: 6.34

Record CNC(=O)c1ccc(NCC#Cc2nc3c(NC4CC[C@@H](N5CC6(COC6)C5)C[C@@H]4F)cccn3c2CC(F)(F)F)c(OC2CC2)c1 (stereo partly drawn) . Reported Papp B→A at 120 min, 10 μM: 6.82

Record COc1cc(C(=O)N(C)C)ccc1NCC#Cc1nc2c(NC3CC[C@@H](N4CC5(COC5)C4)C[C@@H]3F)cccn2c1CC(F)(F)F (stereo partly drawn) . Reported Papp B→A at 120 min, 10 μM: 6.04

###

Record form. Attribute: GI50. Fill in for each entry.
System: NUGC-3 cells
experiment-summary: NUGC-3 cell proliferation assay (CTG)
Assay type: cell-based, human
measurement-setup: Homo sapiens, NUGC-3, 144 h, 6 days, CTG

Record CNC(=O)c1ccc(NCC#Cc2nc3c(NC4CCS(=O)(=O)CC4)cccn3c2CC(F)(F)F)c(OC)c1 [Compound 10] . Reported GI50: 1000 to 5000 nM

Record CNC(=O)c1ccc(NCC#Cc2nc3c(NC4CC[C@@H](N5CCC5)C[C@@H]4F)cccn3c2CC(F)(F)F)c(OC)c1 (stereo partly shown) [Compound 40] . Reported GI50: < 1000 nM

Record CN1CCC(Nc2cccn3c(CC(F)(F)F)c(-c4ncc(CNC(=O)c5ccn(C(C)(C)C)c5)s4)nc23)CC1 [Compound 24] . Reported GI50: 1000 to 5000 nM

Record CNC(=O)c1ccc(NCC#Cc2nc3c(N[C@H]4CC[C@H](N5CC6(COC6)C5)CC4)cccn3c2CC(F)(F)F)c(OC)c1 [Compound 9] . Reported GI50: < 1000 nM

Record CNC(=O)c1ccc(NCC#Cc2cc3c(NC4CC[C@@H](N5CC6(COC6)C5)C[C@@H]4F)cccn3c2CC(F)(F)F)c(OC)c1 (stereo partly shown) [Compound 65] . Reported GI50: < 1000 nM

Record CNC(=O)c1ccc(NCC#Cc2nc3c(NC4CCN(CC(O)COC)CC4)cccn3c2CC(F)(F)F)c(OC)c1 (stereo not shown) [Compound 7] . Reported GI50: 1000 to 5000 nM

Record [2H]C([2H])([2H])NC(=O)c1ccc(NCC#Cc2cc3c(NC4CCC(N5CC6(COC6)C5)CC4F)cccn3c2CC(F)(F)F)c(OC2CC2)c1 (stereo not shown) [Compound 76d] . Reported GI50: < 1000 nM

###

Tested on: NUGC-3 cells
experiment-summary: NUGC-3 cell proliferation assay (CTG)
Type: cell-based, human
measurement-setup: Homo sapiens, NUGC-3, 144 h, 6 days, CTG
Record form. Attribute: GI50. Fill in for each entry.

Record CNC(=O)c1ccc(NCc2nnc(-c3nc4c(NC5CCN(C)CC5)cccn4c3CC(F)(F)F)s2)c(OC)c1 [Compound 18] . Reported GI50: 1 to 5 µM

Record CNC(=O)c1ccc(NCC#Cc2nc3c(NC4CCC(C)(O)CC4)cccn3c2CC(F)(F)F)c(OC)c1 (stereo not shown) [Compound 25] . Reported GI50: ≥ 5 µM

Record COc1cc(P(C)(C)=O)ccc1NCC#Cc1nc2c(N[C@@H]3CCN(C)C[C@@H]3F)cccn2c1CC(F)(F)F [Compound 14] . Reported GI50: 1 to 5 µM

Record COc1cc(S(C)(=N)=O)ccc1NCC#Cc1nc2c(NC3CCN(C)CC3)cccn2c1CC(F)(F)F (stereo not shown) [Compound 15] . Reported GI50: < 1 µM

Record CNC(=O)c1ccc(NCC#Cc2nc3c(NC4CC[C@@H](N5CC6(CCOCC6)C5)C[C@@H]4F)cccn3c2CC(F)(F)F)c(OC)c1 (stereo partly shown) [Compound 46] . Reported GI50: < 1 µM

Record CNC(=O)c1ccc(NCC#Cc2nc3c(NC4CC[C@@H](N5CC6(CCC6)C5)C[C@@H]4F)cccn3c2CC(F)(F)F)c(OC)c1 (stereo partly shown) [Compound 42] . Reported GI50: < 1 µM

Record CNC(=O)c1ccc(NCC#Cc2nc3c(N[C@@H]4CCN(CCOC)C[C@@H]4F)cccn3c2CC(F)(F)F)c(OC)c1 [Compound 21] . Reported GI50: 1 to 5 µM
